Origin of the recorded values: ChEMBL document CHEMBL1833873

Tested on: MKN-74
MEASUREMENT_NOTES: Cytotoxicity against human MKN74 cells after 48 hrs by sulforhodamine B assay
Format: functional
MEASUREMENT_CONTEXT: MKN-74, 48 h
ASSAY_ENDPOINT: GI50 (µM)
Give bare numbers, in µM.

>>> number("CCCCCCCCCCCC[C@@H](O)[C@H]1CC[C@H]([C@H](O)CCCCCCCCCCCCC2=C[C@H](CF)OC2=O)O1")
40

Here's the next entry for you.
I would be grateful if you could share the reported GI50 for "CCCCCCCCCCCC[C@@H](O)[C@H]1CC[C@H]([C@H](O)CCCCCCCCCCCCC2=C[C@H](C(F)F)OC2=O)O1" .
57
